- Tested on: SriC22
- Assay method text: Substrate testing with lyophilised material containing SriC22 (Example 5, method of Example 4A)
- Format: biochemical, Streptomyces rimosus NRRL 2234
- Conditions: 0.1 mg/ml substrate
Observable: Overall % conversion to oxidised products

Below, 5 compounds whose answers are already recorded.
Compound | Observed value
CCCCNC(=O)NS(=O)(=O)c1ccc(C)cc1 [Tolbutamide] | 0%
NC(=O)N1c2ccccc2C=Cc2ccccc21 [Carbamazepine] | 0%
CCCCCCCCCCCCCCCC(=O)O [Palmitic acid] | 0%
C/C(=C\c1csc(C)n1)[C@@H]1C[C@@H]2O[C@]2(C)CCC[C@H](C)[C@H](O)[C@@H](C)C(=O)C(C)(C)[C@@H](O)CC(=O)O1 [Epothilone B] | 0%
CC1(C)CCC[C@]2(C)[C@H]3CCO[C@]3(C)CC[C@@H]12 [Ambroxide] | 0%

// moving on: another record for Overall % conversion to oxidised products
Input line: // Overall % conversion to oxidised products lookup, key: O=C(O)Cc1ccccc1Nc1c(Cl)cccc1Cl [Diclofenac]
Output line: 0.9%

* * *

- System: P450SeuC10
- Assay method text: Whole-cell biotransformation in E. coli expressing P450SeuC10, ferredoxinSeuF08 and ferredoxin reductaseSCF15A (Example 4B)
- Assay type: cell-based, Streptomyces eurythermus NRRL 2539
- Conditions: product formed from parent substrate dosed at 100 mg/L, E. coli whole cells, 100 μL screening scale
The following molecules are listed with their measured inferred yield of oxidised product (UPLC-MS) values.
Hi! Could you send only the number? It should be in %, unit omitted.

Below, 3 molecules whose answers are already recorded.
Molecule | Subject of test | Observed value
CC(C)(C)c1ccc(S(=O)(=O)Nc2nc(-c3ncccn3)nc(OCCO)c2Oc2ccccc2O)cc1 | P450SeuC10 | 3.4
O=C(O)Cc1cc(O)ccc1Nc1c(Cl)cccc1Cl [5-hydroxydiclofenac] | P450SeuC10 | 19.4
O=C(O)Cc1ccccc1Nc1c(Cl)cc(O)cc1Cl [4′-hydroxydiclofenac] | P450SeuC10 | 73.4

// moving on: another record for inferred yield of oxidised product (UPLC-MS)
Input line: // inferred yield of oxidised product (UPLC-MS) lookup, key: COc1ccccc1Oc1c(NS(=O)(=O)c2ccc(C(C)(C)CO)cc2)nc(-c2ncccn2)nc1OCCO [hydroxy-bosentan]
Output line: 81

* * *

- Tested on: P450SeuC10
- Assay method text: Oxidase activity/spectrum testing with lyophilised material containing P450SeuC10, ferredoxinSeuF08 and ferredoxin reductaseSCF15A (Example 4A)
- Type: biochemical, Streptomyces eurythermus NRRL 2539
- Conditions: SeuC10, lyophilised material, 0.1 mg/ml substrate, 27° C., 16-20 hours, pH 8.0, UPLC-MS
Observable: Overall % conversion to oxidised products (%)
Hi! Could you send only the number? It should be in %, unit omitted.

Below, 5 compounds whose answers are already recorded.
Compound | Subject of test | Observed value
C/C(=C\c1csc(C)n1)[C@@H]1C[C@@H]2O[C@]2(C)CCC[C@H](C)[C@H](O)[C@@H](C)C(=O)C(C)(C)[C@@H](O)CC(=O)O1 | P450SeuC10 | 35.1
CCCCNC(=O)NS(=O)(=O)c1ccc(C)cc1 [Tolbutamide] | P450SeuC10 | 21
CC1(C)CCC[C@]2(C)[C@H]3CCO[C@]3(C)CC[C@@H]12 [Ambroxide] | P450SeuC10 | 72.8
NC(=O)N1c2ccccc2C=Cc2ccccc21 [Carbamazepine] | P450SeuC10 | 49.2
CCCCCCCCCCCCCCCC(=O)O | P450SeuC10 | 70.2

// moving on: another record for Overall % conversion to oxidised products
Input line: Any idea what Overall % conversion to oxidised products came out for O=C(O)Cc1ccccc1Nc1c(Cl)cccc1Cl on P450SeuC10?
Output line: 98.3

Value source: patent US12410411B2
